Reported kon values for a set of binders
Molecular target: T1, cynoNectin4-mFc (cyno, UniProt A0A2K5WES1 32-349)
T1 construct: Immobilized on the SPR chip; also called cyanoNectin4; not shown: mFc (mouse Fc)
T1 sequence: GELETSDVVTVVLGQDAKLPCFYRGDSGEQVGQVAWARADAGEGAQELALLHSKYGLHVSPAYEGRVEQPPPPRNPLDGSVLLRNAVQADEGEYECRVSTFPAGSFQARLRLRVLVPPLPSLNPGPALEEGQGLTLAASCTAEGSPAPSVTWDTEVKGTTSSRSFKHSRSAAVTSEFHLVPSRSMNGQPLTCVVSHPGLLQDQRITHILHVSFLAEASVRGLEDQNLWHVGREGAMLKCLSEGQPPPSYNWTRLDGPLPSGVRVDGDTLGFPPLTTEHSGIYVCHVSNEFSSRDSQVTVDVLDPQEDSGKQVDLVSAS
Test: SPR, cynoNectin4-mFc immobilized, pH 6.0
Method: Binding kinetics of anti-Nectin4 antibodies were measured by surface plasmon resonance using a SPR2/4 instrument (Sierra Sensors, Hamburg, Germany) and flat amine sensor chips. The SPR sensor contained four flow cells (FC1-FC4), each of which was addressed individually or in groups. huNectin4-His was immobilized in FC2, and cynoNectin4-mFc in FC4. No protein was immobilized in FC1 and FC3 which were used as control surfaces for FC2 and FC4, respectively. […] The off-rate was measured for 360s. […]
Numbers only here, please. The scale is M⁻¹ s⁻¹.

binder | uom | obs-value
BAP-143-00-02 (antibody, V domains shown, Used as a conjugate with a linker payload (CAB ADC)) VH: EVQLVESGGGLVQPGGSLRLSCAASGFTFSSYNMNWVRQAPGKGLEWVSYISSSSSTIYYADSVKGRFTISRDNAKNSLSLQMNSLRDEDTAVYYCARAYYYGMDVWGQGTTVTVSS VL: DIQMTQSPSSVSASVGDRVTITCRASQGISGWLAWYQQKPGKAPKFLIYAASTLQSGVPSRFSGSGSGTDFTLTISSLQPEDFATYYCQQANSEPPTFGGGTKVEIK | M⁻¹ s⁻¹ | 443000

Lab note: next binder to report on.
Entry under review: BAP-143-00-04 (antibody, V domains shown, Used as a conjugate with a linker payload (CAB ADC)) VH: EVQLVESGGGLVQPGGSLRLSCAASGFTFSSYNDNWVRQAPGKGLEWVSYISSSSSTIYYADSVKGRFTISRDNAKNSLSLQMNSLRDEDTAVYYCARAYYYGMDVWGQGTTVTVSS VL: DIQMTQSPSSVSASVGDRVTITCRASQGISGWLAWYQQKPGKAPKFLIYAASTLQSGVPSRFSGSGSGTDFTLTISSLQPEDFATYYCQQANSFPPTFGGGTKVEIK . Reported kon?
1.82e+06
